- Assayed Target: EDG3 (Homo sapiens)
- Test: GPCR reactivity screen, PathHunter β-Arrestin, agonist assay EDG3
- Assay type: cell-based
- Set-up: concentration or dose not given beside the values
- Experimental Conditions: agonist mode; control sphingosine-1-phosphate
Reported EDG3 (Agonist) percent activity is given for each of the following compounds.
Experimental Readout: EDG3 (Agonist) percent activity (%)

Compound	Recorded Result
C=C(C)[C@@H]1CCC(C)=C[C@H]1c1c(O)cc(CC)cc1O	1
CCCc1cc(O)c(C/C=C(\C)CCC=C(C)C)c(O)c1C(=O)O	−1
C=C(C)[C@@H]1CCC(C)=C[C@H]1c1c(O)cc(CCC)cc1O	1
CCCCCc1cc(O)c(C/C=C(\C)CCC=C(C)C)c(O)c1C(=O)O	2
CCCc1cc(O)c2c(c1)OC(C)(C)[C@@H]1CCC(C)=C[C@@H]21 [THCV, tetrahydrocannabivarin]	1
CCCCCc1cc2c(c(O)c1C(=O)O)C1C3C(CCC3(C)O2)C1(C)C (centres unmarked)	3
CCCCCc1cc(O)c2c(c1)OC(C)(C)c1ccc(C)cc1-2	5
C=C(C)[C@@H]1CCC(C)=C[C@H]1c1c(O)cc(C)cc1O	1

* * *

- Assayed Target: MRGPRX2 (Homo sapiens, UniProt Q96LB1)
- Sequence (Q96LB1 whole entry): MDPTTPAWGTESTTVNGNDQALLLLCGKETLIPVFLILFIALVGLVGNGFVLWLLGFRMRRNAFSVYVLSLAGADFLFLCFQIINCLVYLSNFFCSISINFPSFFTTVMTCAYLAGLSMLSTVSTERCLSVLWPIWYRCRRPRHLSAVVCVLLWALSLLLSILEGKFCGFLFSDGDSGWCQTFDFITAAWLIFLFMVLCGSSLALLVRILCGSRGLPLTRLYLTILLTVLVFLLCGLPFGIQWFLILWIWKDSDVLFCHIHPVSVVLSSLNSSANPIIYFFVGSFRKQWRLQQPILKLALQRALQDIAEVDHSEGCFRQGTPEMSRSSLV
- Test: GPCR reactivity screen, PathHunter β-Arrestin, antagonist assay MRGPRX2
- Assay type: cell-based
- Experimental Conditions: antagonist mode; agonist challenge at EC80
Experimental Readout: MRGPRX2 (Antagonist) percent inhibition

Compound	Experimental Readout	Recorded Result
CCCCCc1cc(O)c(C/C=C(\C)CCC=C(C)C)c(O)c1C(=O)O	MRGPRX2 (Antagonist) percent inhibition	17%
C=C(C)[C@@H]1CCC(C)=C[C@H]1c1c(O)cc(CCC)c(C(=O)O)c1O	MRGPRX2 (Antagonist) percent inhibition	−8%
CCCCCc1cc(O)c2c(c1)OC(C)(C)c1ccc(C)cc1-2	MRGPRX2 (Antagonist) percent inhibition	73%
CCCc1cc(O)c(C/C=C(\C)CCC=C(C)C)c(O)c1C(=O)O	MRGPRX2 (Antagonist) percent inhibition	7%
C=C(C)[C@@H]1CCC(C)=C[C@H]1c1c(O)cc(CCC)cc1O	MRGPRX2 (Antagonist) percent inhibition	71%
CCCCCc1cc(O)c2c(c1)OC1(C)CCC3C1C2C3(C)C (stereo not drawn)	MRGPRX2 (Antagonist) percent inhibition	82%
CCCc1cc(O)c(C/C=C(\C)CCC=C(C)C)c(O)c1	MRGPRX2 (Antagonist) percent inhibition	95%
CCCCCc1cc2c(c(O)c1C(=O)O)C=CC(C)(CCC=C(C)C)O2 (stereo not drawn)	MRGPRX2 (Antagonist) percent inhibition	49%
CCCCc1cc(O)c(CC=C(C)CCC=C(C)C)c(O)c1	MRGPRX2 (Antagonist) percent inhibition	94%
CCCCCc1cc2c(c(O)c1C(=O)O)C1C3C(CCC3(C)O2)C1(C)C (stereo not drawn)	MRGPRX2 (Antagonist) percent inhibition	36%
CCCCCc1cc(O)c2c(c1)OC(C)(CCC=C(C)C)C=C2 (stereo not drawn)	MRGPRX2 (Antagonist) percent inhibition	89%
C=C(C)[C@@H]1CCC(C)=C[C@H]1c1c(O)cc(CCCCC)cc1O	MRGPRX2 (Antagonist) percent inhibition	85%
CCCCCc1cc(O)c(C/C=C(\C)CCC=C(C)C)c(O)c1	MRGPRX2 (Antagonist) percent inhibition	96%
CCCCc1cc(O)c(C/C=C(\C)CCC=C(C)C)c(O)c1C(=O)O	MRGPRX2 (Antagonist) percent inhibition	20%
C=C(C)[C@@H]1CCC(C)=C[C@H]1c1c(O)cc(C)cc1O	MRGPRX2 (Antagonist) percent inhibition	12%
C=C(C)[C@@H]1CCC(C)=C[C@H]1c1c(O)cc(CCCCC)c(C(=O)O)c1O	MRGPRX2 (Antagonist) percent inhibition	8%
CCCc1cc(O)c2c(c1)OC(C)(C)[C@@H]1CCC(C)=C[C@@H]21 [THCV, tetrahydrocannabivarin]	MRGPRX2 (Antagonist) percent inhibition	55%
C=C(C)[C@@H]1CCC(C)=C[C@H]1c1c(O)cc(CC)cc1O	MRGPRX2 (Antagonist) percent inhibition	31%

* * *

Reported maximum inhibition (antagonism) CHRM2 is given for each of the following compounds.
- Assayed Target: CHRM2 (Homo sapiens, UniProt P08172)
- Sequence (P08172 whole entry): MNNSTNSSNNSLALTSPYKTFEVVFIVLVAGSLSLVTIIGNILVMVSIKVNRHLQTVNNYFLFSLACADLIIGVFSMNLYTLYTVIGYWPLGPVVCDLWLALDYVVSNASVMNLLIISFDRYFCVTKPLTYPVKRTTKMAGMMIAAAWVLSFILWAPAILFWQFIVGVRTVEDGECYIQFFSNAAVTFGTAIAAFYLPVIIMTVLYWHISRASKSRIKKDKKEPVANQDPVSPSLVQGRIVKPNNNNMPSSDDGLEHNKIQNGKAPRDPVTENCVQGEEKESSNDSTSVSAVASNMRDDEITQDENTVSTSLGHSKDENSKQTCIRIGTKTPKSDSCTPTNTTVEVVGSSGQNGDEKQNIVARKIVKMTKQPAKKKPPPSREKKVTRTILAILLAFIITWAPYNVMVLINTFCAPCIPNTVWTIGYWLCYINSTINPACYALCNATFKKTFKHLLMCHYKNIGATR
- Test: IC50 antagonist activity screen, PathHunter β-Arrestin, CHRM2
- Format: cell-based
- Experimental Conditions: maximum of IC50 curve

Compound	Readout Unit	maximum inhibition (antagonism) CHRM2
CCCCCCCc1cc(O)c(C/C=C(\C)CCC=C(C)C)c(O)c1	%	10
CCCc1cc(O)c2c(c1)OC(C)(C)[C@@H]1CCC(C)=C[C@@H]21 [THCV, tetrahydrocannabivarin]	%	0
CCCCCc1cc(O)c2c(c1)OC(C)(CCC=C(C)C)C=C2 (stereo not drawn)	%	85

* * *

- Assayed Target: MRGPRX2 (Homo sapiens)
- Test: GPCR reactivity screen, PathHunter β-Arrestin, antagonist assay MRGPRX2
- Assay type: cell-based
- Experimental Conditions: GPCR reactivity screen
Experimental Readout: antagonist activity against MRGPRX2 (in words)

Compound	Recorded Result
CCCCCc1cc(O)c(C/C=C(\C)CCC=C(C)C)c(O)c1	antagonist activity
CCCCCc1cc(O)c2c(c1)OC(C)(C)c1ccc(C)cc1-2	antagonist activity
C=C(C)[C@@H]1CCC(C)=C[C@H]1c1c(O)cc(CCCCC)cc1O	antagonist activity
CCCCc1cc(O)c(CC=C(C)CCC=C(C)C)c(O)c1	antagonist activity
C=C(C)[C@@H]1CCC(C)=C[C@H]1c1c(O)cc(CCC)cc1O	antagonist activity
CCCCCc1cc(O)c2c(c1)OC1(C)CCC3C1C2C3(C)C (stereo not shown)	antagonist activity
CCCc1cc(O)c(C/C=C(\C)CCC=C(C)C)c(O)c1	antagonist activity

* * *

Reported EDG3 (Antagonist) percent inhibition is given for each of the following molecules.
- Assayed Target: EDG3 (Homo sapiens)
- Test: GPCR reactivity screen, PathHunter β-Arrestin, antagonist assay EDG3
- Format: cell-based
- Experimental Conditions: antagonist mode; agonist challenge at EC80

Molecule	EDG3 (Antagonist) percent inhibition (%)
C=C(C)[C@@H]1CCC(C)=C[C@H]1c1c(O)cc(CCCCC)cc1O [CBD, cannabidol]	35
C=C(C)[C@@H]1CCC(C)=C[C@H]1c1c(O)cc(C)cc1O [CBD-C1, cannabidiorcol]	13
C=C(C)[C@@H]1CCC(C)=C[C@H]1c1c(O)cc(CCC)c(C(=O)O)c1O [CBDVA, cannabidivarinic acid]	13
CCCCc1cc(O)c(CC=C(C)CCC=C(C)C)c(O)c1 [CBG-C4, cannabigerol butyl]	28

* * *

Reported EDG3 (Agonist) percent activity is given for each of the following molecules.
- Assayed Target: UniProt:Q99500
- Test: GPCR reactivity screen, PathHunter β-Arrestin, agonist assay EDG3
- Type: cell-based
- Set-up: concentration or dose not given beside the values
- Experimental Conditions: agonist mode; control sphingosine-1-phosphate

Molecule	EDG3 (Agonist) percent activity / %
CCCCCc1cc2c(c(O)c1C(=O)O)C=CC(C)(CCC=C(C)C)O2 (stereo not drawn) [CBCA, cannabichromenic acid]	1
CCCCCc1cc(O)c2c(c1)OC1(C)CCC3C1C2C3(C)C (stereo not drawn) [CBL, cannabicyclol]	−1
CCCc1cc(O)c(C/C=C(\C)CCC=C(C)C)c(O)c1 [CBGV, cannabigerivarin]	2
C=C(C)[C@@H]1CCC(C)=C[C@H]1c1c(O)cc(CCCCC)cc1O [CBD, cannabidol]	2
CCCCc1cc(O)c(CC=C(C)CCC=C(C)C)c(O)c1 [CBG-C4, cannabigerol butyl]	3
CCCCCc1cc(O)c(C/C=C(\C)CCC=C(C)C)c(O)c1 [CBG, cannabigerol]	8

* * *

- Assayed Target: EDG3 (Homo sapiens, UniProt Q99500)
- Sequence (Q99500 whole entry): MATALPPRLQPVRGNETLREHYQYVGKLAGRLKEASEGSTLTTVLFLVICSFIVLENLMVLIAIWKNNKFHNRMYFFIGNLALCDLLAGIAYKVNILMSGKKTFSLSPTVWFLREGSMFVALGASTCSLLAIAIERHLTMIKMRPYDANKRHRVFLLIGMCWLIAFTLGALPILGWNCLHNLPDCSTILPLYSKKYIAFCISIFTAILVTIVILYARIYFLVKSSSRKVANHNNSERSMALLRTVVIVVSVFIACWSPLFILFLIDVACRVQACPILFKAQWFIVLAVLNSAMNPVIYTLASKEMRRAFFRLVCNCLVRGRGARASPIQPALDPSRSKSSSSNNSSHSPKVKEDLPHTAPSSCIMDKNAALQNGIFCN
- Test: IC50 antagonist activity screen, PathHunter β-Arrestin, EDG3
- Format: cell-based
- Experimental Conditions: maximum of IC50 curve
Reported maximum inhibition (antagonism) EDG3 is given for each of the following compounds.

Compound	maximum inhibition (antagonism) EDG3
C=C(C)[C@@H]1CCC(C)=C[C@H]1c1c(O)cc(CCCCCC)cc1O [CBD-C6, cannabidol hexyl]	11%
CCCCCCCCCc1cc(O)c(C/C=C(\C)CCC=C(C)C)c(O)c1 [CBG-C9, cannabigerol nonyl]	55%
C=C(C)[C@@H]1CCC(C)=C[C@H]1c1c(O)cc(CCCCC)cc1O [CBD, cannabidol]	30%
CCCCCc1cc2c(c(O)c1C(=O)O)C=CC(C)(CCC=C(C)C)O2 (centres unmarked) [CBCA, cannabichromenic acid]	25%
CCCCCc1cc(O)c2c(c1)OC(C)(CCC=C(C)C)C=C2 (centres unmarked) [CBC, cannabichromene]	43%
CCCCCCc1cc(O)c(C/C=C(\C)CCC=C(C)C)c(O)c1 [CBG-C6, cannabigerol hexyl]	15%
CCCCCCc1cc(O)c(C/C=C(\C)CCC=C(C)C)c(O)c1C(=O)O [CBGA-C6, cannabigerolic acid hexyl]	33%
C=C(C)[C@@H]1CCC(C)=C[C@H]1c1c(O)cc(CCCCCCCCC)cc1O [CBD-C9, cannabidol nonyl]	0%
